src = patent US6528510B1

Test system: HIV infected lymphocyte derived CEM cells
Test: Cellular infection assay in CEM cells, XTT cytopathic procedure (EC50)
Settings: Human immunodeficiency virus 1, CCRF-CEM, read-out: Antiviral Efficacy EC50
Protocol: Compound concentrations were 0.32, 1, 3.2, 10, 32, and 100 uM.
MEASUREMENT NAME: log10 EC50 (log10 of the value in µM)
Note: values are log10 of EC50 expressed in µM.

# MOLECULE, log10 EC50
records = [
    ("Cc1cc(SC2=C(O)CC(CCc3ccoc3)(C(C)C)OC2=O)c(C(C)(C)C)cc1CO (centres unmarked)", 0.00),
    ("CC(C)C1(CCc2ccsc2)CC(O)=C(Sc2cc3sc(N)nc3cc2C(C)(C)C)C(=O)O1 (racemic)", -0.15),
]

Lab note: each molecule below needs its log10 EC50 filled in.
1. Cc1cc(SC2=C(O)C[C@@](CCc3ccsc3)(C(C)C)OC2=O)c(C(C)(C)C)cc1CO
2. Cc1ccc(C(C)(C)C)c(SC2=C(O)CC(CCc3ccc(CO)s3)(C(C)C)OC2=O)c1 (racemic)
3. Cc1cnc(CCC2(C(C)C)CC(O)=C(Sc3cc(C)c(CO)cc3C(C)(C)C)C(=O)O2)s1 (racemic)
4. Cc1cc(SC2=C(O)CC(CCc3ccncc3)(C(C)C)OC2=O)c(C(C)(C)C)cc1CO (centres unmarked)
5. Cc1cc(SC2=C(O)CC(CCc3scnc3C)(C(C)C)OC2=O)c(C(C)(C)C)cc1CO (centres unmarked)
6. CC(C)C1(CCc2ccccc2CO)CC(O)=C(Sc2cc3cc[nH]c3cc2C(C)(C)C)C(=O)O1 (racemic)

Found:
[-0.85, 0.92, 0.28, 0.18, -0.43, -0.74]

Lab note: each molecule below needs its log10 EC50 filled in.
1. Cc1cc(SC2=C(O)CC(CCc3ccco3)(C(C)C)OC2=O)c(C(C)(C)C)cc1CO (centres unmarked)
2. Cc1cc(SC2=C(O)C[C@@](CCc3ccccc3)(C(C)C)OC2=O)c(C(C)C)c2sc(N)nc12
3. Cc1c(F)cccc1CCC1(C(C)C)CC(O)=C(Sc2cc3sc(N)nc3cc2C(C)(C)C)C(=O)O1 (racemic)
4. Cc1cc(SC2=C(O)CC(CCc3csc(N)n3)(C(C)C)OC2=O)c(C(C)(C)C)cc1CO (racemic)
5. CC(C)[C@]1(CCc2ccccc2)CC(O)=C(Sc2cc3sc(NS(C)(=O)=O)nc3cc2C(C)(C)C)C(=O)O1
6. Cc1cc(SC2=C(O)CC(CCc3sccc3C)(C(C)C)OC2=O)c(C(C)(C)C)cc1N (racemic)

Found:
[-0.12, 0.43, -0.33, 0.54, 0.34, 0.04]

Lab note: each molecule below needs its log10 EC50 filled in.
1. Cc1cc(SC2=C(O)CC(CCc3nccs3)(C(C)C)OC2=O)c(C(C)(C)C)cc1CO (centres unmarked)
2. Cc1cc(SC2=C(O)CC(CCc3cccs3)(C(C)C)OC2=O)c(C(C)(C)C)cc1CO (centres unmarked)
3. Cc1cc(SC2=C(O)CC(CCc3ccsc3)(C(C)C)OC2=O)c(C(C)(C)C)cc1CO (centres unmarked)

Found:
1: -0.15; 2: -0.30; 3: -0.52
